# Test system: Canis familiaris
# assay_info: Antispasmodic activity was measured on stomach contraction in anesthetized dog after iv administration of a dose of 0.1 mg/kg
# Type: functional, Canis lupus familiaris
measured_endpoint: Activity

The examples below pair each entry with its known result.
CCN(CCCCCCCCCCOC(=O)c1ccc(OC)c(OC)c1)C1CCc2cc(OC)ccc2C1.Cl (stereo not given); <5
CCCN(CCCCOC(=O)c1ccc(OC)c(OC)c1)C1CCc2cc(OC)ccc2C1.Cl (stereo not given); <5
CCN(CCCCOC(=O)c1ccc(OC)c(OC)c1)C(C)Cc1ccc(OC)cc1 (stereo not given); 2.6

Parameters: items (list). Returns: Activity for each item.
1. CCN(CCCCOC(=O)c1ccc(OC)c(OC)c1)C1CCc2c(OC)ccc(OC)c2C1.Cl (stereo not given)
2. CCN(CCOCCOC(=O)c1ccc(OC)c(OC)c1)C1CCc2cc(OC)ccc2C1.Cl (stereo not given)

## Output
["<5", "<5"]
